Target: T1, human CEACAM5 (carcinoembryonic antigen, CEA) on cells (human, UniProt P06731 35-685)
T1 construct: endogenous on MKN45 gastric adenocarcinoma cells; full-length cDNA stably transfected in the CHO-K1 clones; also called huCEACAM5; MKN45 cells
T1 sequence: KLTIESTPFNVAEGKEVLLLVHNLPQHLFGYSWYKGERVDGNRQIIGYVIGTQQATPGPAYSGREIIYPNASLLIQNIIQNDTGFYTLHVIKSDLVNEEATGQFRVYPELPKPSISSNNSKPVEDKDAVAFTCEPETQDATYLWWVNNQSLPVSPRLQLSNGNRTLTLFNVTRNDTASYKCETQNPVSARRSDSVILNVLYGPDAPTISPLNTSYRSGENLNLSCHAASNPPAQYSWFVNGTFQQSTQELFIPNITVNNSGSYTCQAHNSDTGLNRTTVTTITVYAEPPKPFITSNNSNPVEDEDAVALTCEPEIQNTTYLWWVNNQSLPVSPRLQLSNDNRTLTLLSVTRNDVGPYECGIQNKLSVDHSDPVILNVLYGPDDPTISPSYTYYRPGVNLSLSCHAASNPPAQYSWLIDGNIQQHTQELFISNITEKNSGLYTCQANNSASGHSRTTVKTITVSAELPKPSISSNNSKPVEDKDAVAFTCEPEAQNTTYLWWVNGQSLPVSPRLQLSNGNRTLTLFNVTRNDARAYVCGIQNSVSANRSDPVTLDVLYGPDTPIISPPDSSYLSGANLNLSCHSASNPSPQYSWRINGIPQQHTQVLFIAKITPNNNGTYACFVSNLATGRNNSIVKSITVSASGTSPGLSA
Test: flow cytometry, MKN45 cells
Design: unit not given beside the values
// returns not met unless AUC is strictly below 10000, in which case met

Problem: Please indicate whether the reported AUC of P1AE3108 (antibody, IgG1, V domains shown, huIgG1 P329G LALA; also called MFE-H29 / MFE-L26) VH: QVQLVQSGAEVKKPGSSVKVSCKASGFNIKDSYMHWVRQAPGQGLEWMGWIDPENGDTEYAPKFQGRVTITTDESTSTAYMELSSLRSEDTAVYYCNEGTPTGPYYFDYWGQGTLVTVSS VL: EIQMTQSPSSLSASVGDRVTITCRASQSISSYMHWYQQKPGKAPKLLIYSTSNLASGVPSRFSGSGSGTDFTLTISSLQPEDFATYYCQQRSSYPLTFGGGTKLEIK is strictly below 10000.
Solution: met

Problem: Please indicate whether the reported AUC of P1AE3116 (antibody, IgG1, V domains shown, huIgG1 P329G LALA; also called MFE-H27 / MFE-L25) VH: QVQLVQSGAEVKKPGASVKVSCKASGFNIKDSYMHWVRQAPGQGLEWMGWIDPENGDTEYAPKFQGRVTMTTDTSISTAYMELSRLRSDDTAVYYCARGTPTGPYYFDYWGQGTLVTVSS VL: EIQMTQSPSSLSASVGDRVTITCRASSSVSYMHWYQQKPGKAPKLLIYSTSNLASGVPSRFSGSGSGTDFTLTISSLQPEDFATYYCQQRSSYPLTFGGGTKLEIK is strictly below 10000.
Solution: met

Problem: Please indicate whether the reported AUC of P1AE3114 (antibody, IgG1, V domains shown, huIgG1 P329G LALA; also called MFE-H29 / MFE-L25) VH: QVQLVQSGAEVKKPGSSVKVSCKASGFNIKDSYMHWVRQAPGQGLEWMGWIDPENGDTEYAPKFQGRVTITTDESTSTAYMELSSLRSEDTAVYYCNEGTPTGPYYFDYWGQGTLVTVSS VL: EIQMTQSPSSLSASVGDRVTITCRASSSVSYMHWYQQKPGKAPKLLIYSTSNLASGVPSRFSGSGSGTDFTLTISSLQPEDFATYYCQQRSSYPLTFGGGTKLEIK is strictly below 10000.
Solution: not met

Problem: Please indicate whether the reported AUC of P1AE3092 (antibody, IgG1, V domains shown, huIgG1 P329G LALA; also called MFE-H27 / MFE-L29) VH: QVQLVQSGAEVKKPGASVKVSCKASGFNIKDSYMHWVRQAPGQGLEWMGWIDPENGDTEYAPKFQGRVTMTTDTSISTAYMELSRLRSDDTAVYYCARGTPTGPYYFDYWGQGTLVTVSS VL: EIQMTQSPSSLSASVGDRVTITCRASSSVPYMHWLQQKPGKAPKLLIYSTSSLQSGVPSRFSGSGSGTDFTLTISSVQPEDFATYYCQQRSSYPLTFGGGTKLEIK is strictly below 10000.
Solution: met

Problem: Please indicate whether the reported AUC of P1AE3095 (antibody, IgG1, V domains shown, huIgG1 P329G LALA; also called MFE-H24 / MFE-L29) VH: QVQLVQSGAEVKKPGASVKVSCKASGFNIKDSYMHWVRQAPGQGLEWMGWIDPENGDTEYAPKFQGRVTMTTDTSISTAYMELSRLRSDDTAVYYCNEGTPTGPYYFDYWGQGTLVTVSS VL: EIQMTQSPSSLSASVGDRVTITCRASSSVPYMHWLQQKPGKAPKLLIYSTSSLQSGVPSRFSGSGSGTDFTLTISSVQPEDFATYYCQQRSSYPLTFGGGTKLEIK is strictly below 10000.
Solution: not met
